# Test system: Yap1 mRNA
# assay-method-text: Antisense inhibition of human Yap1 in A-431 cells by cEt gapmers, single dose (Example 4, RTS4814)
# Format: cell-based
# measurement-context: Table 17; A-431 cells, 5,000 cells per well, free uptake, 2,000 nM, approximately 48 hours; RTS4814; normalized to RIBOGREEN; Yap1 mRNA relative to untreated control cells
# Experimental: Modified oligonucleotides were designed to target a Yap1 nucleic acid and were tested for their effect on Yap1 mRNA level in vitro. The modified oligonucleotides were tested in a series of experiments that had similar culture conditions. […] After a treatment period of approximately 48 hours, RNA was isolated from the cells and Yap1 mRNA levels were measured by quantitative real-time RTPCR. […] Yap1 mRNA levels were normalized to total RNA content, as measured by RIBOGREEN®. […]
Strand notation (5' to 3'): a small letter for the sugar, then the base; units joined by * are phosphorothioate-linked, units joined directly phosphodiester-linked; [ ] holds rarer units or linkages, { } end groups; capitals alone tell only the bases. k = constrained ethyl (cEt); [5mC] = 5-methylcytosine; d = 2'-deoxy (DNA)
readout: YAP1 (% UTC)
Number in % UTC, nothing else.

1) 1074595 (antisense kT*kA*kG*dA*dA*dG*dT*dA*dG*dG*dA*dG*d[5mC]*kA*kA*kG) [Compound 1074595]    4
2) 1074147 (antisense kA*kG*kA*dA*dG*d[5mC]*dG*dG*d[5mC]*dG*dA*d[5mC]*dG*kG*k[5mC]*kT) [Compound 1074147]    23

Kindly note: Yap1 mRNA, 958499 (kA*kT*kT*dA*dG*dA*dG*dT*dA*dT*dG*dT*dG*kG*k[5mC]*kA) [Compound 958499] , YAP1 (% UTC) value reported: 3
